Numbers sourced from patent US20260008852A1.

System: T1, His-tagged mouse B7-H3 (mouse, UniProt Q8VE98 29-244, limits assumed)
T1 construct: Bought His-tagged protein coated on the ELISA plate; also called mu B7-H3; murine B7-H3
T1 sequence (looked up): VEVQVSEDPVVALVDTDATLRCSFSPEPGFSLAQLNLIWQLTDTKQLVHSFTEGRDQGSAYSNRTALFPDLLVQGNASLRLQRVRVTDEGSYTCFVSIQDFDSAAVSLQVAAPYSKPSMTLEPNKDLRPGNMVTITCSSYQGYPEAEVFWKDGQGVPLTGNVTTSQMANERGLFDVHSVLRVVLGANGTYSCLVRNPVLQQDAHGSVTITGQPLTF
Procedure Summary: ELISA, coated His-tagged antigen, scFv-Fc 1 ug/ml
Param threshold (1 OD450) applies to ELISA OD450 @ 1 ug/ml; output T when value >= threshold, F when value < threshold.

Some entries whose results are on file:
40633p1.1.D11 (scFv, V domains shown, Tested as scFv-Fc (Expi293 supernatant)) VH: EVQLLESGGGLVQPGGSLRLSCAASGFTFRSYAMSWVRQAPGKGLEWVAYIGSSGGTTYYADSVKGRFTISRDNSKNTLYLQMNSLRAEDTAVYYCVKESYYYMDVWGQGTTVTVSS VL: QSVLTQPPSASGTPGQRVTISCSATISNIDINRVSWYQQLPGTAPKLLIFNSQRPSGVPDRFSGSKSGTSASLAISGLQSEDEADYYCATWDDSLNSWVFGGGTKLTVL ... T
40579p1.E5 (scFv, V domains shown, Tested as scFv-Fc (Expi293 supernatant)) VH: EVQLLESGGGLVQPGGSLRLSCAASGFTFSDDWMTWVRQAPGKGLEWVSAINWNGNSTHYADSVKGRFTVSRDNSKNTLYLQMNSLRAEDTAVYYCAKSRTTYYSSMDVWGQGTTVTVSS VL: EIVLTQSPGTLSLSPGERATLSCRASQTVGSYLAWYQQKPGQAPRLLIYGASSRATGIPARFSGSGSGTDFTLTISSLQSEDFAVYYCQHYYDWPPYSFGGGTKVEIK ... T
40633p1.1.G11 (scFv, V domains shown, Tested as scFv-Fc (Expi293 supernatant)) VH: EVQLLESGGGLVQPGGSLRLSCAASGFTVSYYGMSWVRQAPGKGLEWVSVIKQDGSEEYYADSVKGRFTISRDNSKNTLYLQMNSPRAEDTAVYYCARHWNDYSNGMNVWGQGTTVTVSS VL: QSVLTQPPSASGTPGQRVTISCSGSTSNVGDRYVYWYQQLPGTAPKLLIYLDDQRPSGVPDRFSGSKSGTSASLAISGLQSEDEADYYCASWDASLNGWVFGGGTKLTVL ... T
40579p1.D8 (scFv, V domains shown, Tested as scFv-Fc (Expi293 supernatant)) VH: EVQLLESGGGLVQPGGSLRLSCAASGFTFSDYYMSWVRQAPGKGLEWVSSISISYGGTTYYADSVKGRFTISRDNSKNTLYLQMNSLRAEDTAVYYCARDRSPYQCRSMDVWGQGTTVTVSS VL: EIVLTQSPGTLSLSPGERATLSCRASQSIRSDLAWYQQKPGQAPRLLIYNTVTRATGVPDRFSGSGSGTEFTLTISSLQSEDFAVYYCQQYNSWPPLTFGGGTKVEIK ... F
40511p1.2.G10 (scFv, V domains shown, Tested as scFv-Fc (Expi293 supernatant)) VH: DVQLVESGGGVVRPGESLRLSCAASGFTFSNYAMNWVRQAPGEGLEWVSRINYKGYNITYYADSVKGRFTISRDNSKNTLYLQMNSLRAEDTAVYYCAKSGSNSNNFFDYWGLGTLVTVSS VL: EIVLTQSPGTLSLSPGERATLSCRASQTVGSKLAWYQQKPGQAPRLLIYGASTRATDIPDRFSGSGSGTEFTLTISSLQSEDFAVYYCQQYINWPPLSFGGGTKVEIK ... T

Query: Is reported ELISA OD450 @ 1 ug/ml greater than or equal to 1 OD450 here: 40633p1.2.D11 (scFv, V domains shown, Tested as scFv-Fc (Expi293 supernatant)) VH: EVQLESGGGLVQPGGSLRLSCAASGFTVSYYGMSWVRQAPGKGLEWVSAIKQDGSEKYYADSVKGRFTISRDNSKNTLYLQMNSLRAEDTAVYYCARHWNDYSNAMNVWGQGTTVTVSS VL: QSVLTQPPSASGTPGQRVTISCSGSTSNIAIDFVNWYQQLPGTAPKLLIYTIDQRPSGVPDRFSGSKSGTSASLAISGLQSEDEAVYYCASWDASLNGWVFGRGTKLTVL
Response: T

Query: Is reported ELISA OD450 @ 1 ug/ml greater than or equal to 1 OD450 here: 40579p1.D1 (scFv, V domains shown, Tested as scFv-Fc (Expi293 supernatant)) VH: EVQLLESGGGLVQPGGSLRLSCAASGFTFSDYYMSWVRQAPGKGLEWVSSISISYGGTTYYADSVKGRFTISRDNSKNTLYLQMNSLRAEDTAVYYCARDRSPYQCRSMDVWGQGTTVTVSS VL: EIVLTQSPGSLSLSPGERATLSCRASQSVNSDLAWYQQKPGQAPRLLIYAASSRATGIPARFSGSGSGTEFTLTISSLQSEDFAVYYCQQYNNWPPLTFGGGTKVEIK
Response: F

Query: Is reported ELISA OD450 @ 1 ug/ml greater than or equal to 1 OD450 here: 40633p1.1.B12 (scFv, V domains shown, Tested as scFv-Fc (Expi293 supernatant)) VH: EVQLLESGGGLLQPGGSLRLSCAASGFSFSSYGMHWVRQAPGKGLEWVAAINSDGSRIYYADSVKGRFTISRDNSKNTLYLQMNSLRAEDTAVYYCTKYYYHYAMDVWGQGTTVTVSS VL: QSVLTQPPSASGTPGQRVTISCSGSRSDIGATTVNWYQQLPGTAPKLLTYQSHLRPSGVPDRFSGSKSGTSASLAISGLQSEDEADYYCASWDASLNTWVFGGGTKLTVL
Response: T

Query: Is reported ELISA OD450 @ 1 ug/ml greater than or equal to 1 OD450 here: 40579p1.B8 (scFv, V domains shown, Tested as scFv-Fc (Expi293 supernatant)) VH: EVQLLESGGGLVQPGGSLRLSCAASGFTFSDYYMSWVRQAPGKGLEWVSGISMSSTIYYADSVKGRFTISRDNSKNTLYLQMNSLRAEDTAVYYCARHRSPYQYRSMDVWGQGTTVTVSS VL: EIVLTQSPGTLSLSPGERATLSCRASQSVNSKLAWYQQKPGQPPSLLIYDASRRATGIPDRFSGSGSGTEFTLTISSLQSEDFAVYYCQQYNNWPPLTFGGGTKVEIK
Response: T

Query: Is reported ELISA OD450 @ 1 ug/ml greater than or equal to 1 OD450 here: 40633p1.2.E11 (scFv, V domains shown, Tested as scFv-Fc (Expi293 supernatant)) VH: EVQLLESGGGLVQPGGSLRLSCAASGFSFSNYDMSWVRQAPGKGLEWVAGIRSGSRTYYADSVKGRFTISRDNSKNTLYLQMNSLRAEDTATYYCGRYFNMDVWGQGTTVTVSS VL: QSVLTQPPSASGTPGQRVTISCSGSTFNIGTNLVHWYQQLPGTAPKLLIYLTDRRPPGVPDRFSGSKSGTSASLAISGLQSEDEANYYCATWDDSLNSFLFGGGTKLTVL
Response: T
